Read-out: Glutamate-cysteine ligase regulatory (GCLM), GCLM (gene 2730)
Test: LTEA_HepaRG_GCLM: Life Technologies and Expression Analysis (LTEA) Assay for Glutamate-cysteine ligase regulatory (GCLM) using HepaRG (AID 2283500)
Details: mRNA level, 48 h; actives raise or lower the signal
The source made the active and inactive calls. How the source made its calls: active means hit-call score of the fitted dose curve at least 0.9, where 1 is the maximum; inactive means score below 0.9.
Classes used: t = active, f = inactive

>>> print(df.to_string())
                                    molecule  category_label
 0             CCOP(=S)(OCC)SCSP(=S)(OCC)OCC               f
 1                               ClCC(Cl)CCl               f
 2  C[C@]12CCC(=O)C[C@@H]1CC[C@@H]1[C@@H]2CC[C@]2(C)[C@@H](O)CC[C@@H]12               f
 3  O=C(O)C(F)(F)C(F)(F)C(F)(F)C(F)(F)C(F)(F)C(F)(F)C(F)(F)C(F)(F)C(F)(F)C(F)(F)F               f
 4  CC12CC1(C)C(=O)N(c1cc(Cl)cc(Cl)c1)C2=O (configuration not stated)               f
 5                                  CN(C)N=O               f
 6                           Oc1cccc2cccnc12               f
 7  O=C(Nc1ccc2[nH]ccc2c1)c1cc2cc(F)ccc2n1Cc1cccc(F)c1               t
 8               O=c1[nH]c(=O)[nH]c(=O)[nH]1               f
 9           CCC(C)(C)c1ccc(O)c(C(C)(C)CC)c1               f
10                            Cn1sc(Cl)cc1=O               f
11  CCN1CCC2(CC1)COc1cc3c(cc12)N(C(=O)c1ccc(-c2ccc(-c4nnc(C)o4)cc2C)cc1)CC3               t

Sourced from PubChem BioAssay (EPA / NIEHS)
